B1: TPR t1 (parent)
chain: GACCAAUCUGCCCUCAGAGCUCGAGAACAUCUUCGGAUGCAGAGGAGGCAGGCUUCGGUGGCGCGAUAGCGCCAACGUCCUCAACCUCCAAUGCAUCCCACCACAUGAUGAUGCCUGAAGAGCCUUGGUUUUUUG

# Variants of: B1
# METHOD DESCRIPTION: polymerase ribozyme fitness, log enrichment relative to wild type (log ratio); higher = more active; in vitro selection for triplet polymerase activity
PROPERTY: polymerase ribozyme fitness (log ratio)
Give the figure by itself; no unit, no explanation.

[
  {
    "MUTATIONS": "C11A C62U C94A",
    "polymerase ribozyme fitness (log ratio)": -2.43
  },
  {
    "MUTATIONS": "G63U C85U U130A",
    "polymerase ribozyme fitness (log ratio)": -2.02
  },
  {
    "MUTATIONS": "G69A G93A A95C A121U",
    "polymerase ribozyme fitness (log ratio)": -3.33
  },
  {
    "MUTATIONS": "A2C U7A G10U C98U",
    "polymerase ribozyme fitness (log ratio)": -4.07
  },
  {
    "MUTATIONS": "G39A G51A C64U U78C",
    "polymerase ribozyme fitness (log ratio)": -3.91
  },
  {
    "MUTATIONS": "U21C A41U G120A",
    "polymerase ribozyme fitness (log ratio)": -0.65
  },
  {
    "MUTATIONS": "C12U A119C A121C",
    "polymerase ribozyme fitness (log ratio)": -2.21
  },
  {
    "MUTATIONS": "A5C C20A A43C G44C G71A C97U U106A C115A",
    "polymerase ribozyme fitness (log ratio)": -6.63
  },
  {
    "MUTATIONS": "C8A C72A G93C",
    "polymerase ribozyme fitness (log ratio)": 0.271
  },
  {
    "MUTATIONS": "A18G G19A",
    "polymerase ribozyme fitness (log ratio)": -1.4
  }
]

Now for a further variant.
Query block: Specify reported polymerase ribozyme fitness (log ratio) for the variant shown: C20G C124A
Result block: -2.2
